Assignment: determine reported Ki for the given binders.
Measurement Target: T1, human plasma kallikrein (PKal) (human, UniProt P03952 20-638)
T1 construct: Active PKal is cleaved at the marked R/I site into two disulfide-linked chains; also called human Pkal; active PKal
T1 sequence (P03952 20-638 limits assumed): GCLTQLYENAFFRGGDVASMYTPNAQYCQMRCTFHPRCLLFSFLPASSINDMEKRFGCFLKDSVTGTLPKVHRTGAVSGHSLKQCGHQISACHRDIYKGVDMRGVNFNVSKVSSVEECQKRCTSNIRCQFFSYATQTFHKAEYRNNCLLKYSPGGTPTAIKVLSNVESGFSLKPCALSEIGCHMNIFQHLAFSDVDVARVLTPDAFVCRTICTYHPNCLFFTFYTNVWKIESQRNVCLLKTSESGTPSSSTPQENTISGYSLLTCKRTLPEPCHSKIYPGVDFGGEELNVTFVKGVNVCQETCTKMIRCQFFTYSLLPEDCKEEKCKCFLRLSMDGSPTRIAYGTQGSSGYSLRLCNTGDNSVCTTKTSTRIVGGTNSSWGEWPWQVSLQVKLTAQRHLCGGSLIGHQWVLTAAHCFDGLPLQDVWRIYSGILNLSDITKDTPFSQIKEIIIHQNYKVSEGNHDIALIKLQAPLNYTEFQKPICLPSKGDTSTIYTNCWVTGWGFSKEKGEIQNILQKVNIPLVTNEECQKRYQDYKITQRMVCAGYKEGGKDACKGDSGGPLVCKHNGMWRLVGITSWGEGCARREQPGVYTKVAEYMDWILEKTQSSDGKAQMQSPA
Method Summary: Ki,app; Fab inhibition of PKal cleavage of a substrate peptide, Morrison fit
One number for each entry, in nM.

binder="M0202-E03 (Fab, V domains shown) VH: EVQLLESGGGLVQPGGSLRLSCAASGFTFSHYIMMWVRQAPGKGLEWVSGIYSSGGITVYADSVKGRFTISRDNSKNTLYLQMNSLRAEDTAVYYCAYRRTGIPRRDAFEIWGQGTMVTVSS VL: DIQMTQSPSTLSASVGDRVTITCRASQSISSWLAWYQQKPGKAPNLLIYKASTLESGVPSRFSGSGSGTEFTLTISSLQPDDFATYYCQQYNTYWTFGQGTKVEIK" outcome_measure=Ki recorded_number=2

Attention now shifts to the item below.
Please fill in: Ki reported for M0202-B04 (Fab, V domains shown) VH: EVQLLESGGGLVQPGGSLRLSCAASGFTFSHYIMMWVRQAPGKGLEWVSGIYSSGGITVYADSVKGRFTISRDNSKNTLYLQMNSLRAEDTAVYYCAYRRSGVPRRDAFDIWGQGTMVTVSS VL: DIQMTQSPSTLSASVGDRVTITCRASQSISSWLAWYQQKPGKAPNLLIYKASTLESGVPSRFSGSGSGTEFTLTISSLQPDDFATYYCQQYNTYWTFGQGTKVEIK = 0.2
